Reference for the values: paper PMC4939265

PARAMETER: melting point

Prompt line: # get_value(readout='melting point', item= COC(=O)[C@H]1Cc2c([nH]c3ccccc23)[C@@H](c2ccc(OC)cc2OC)N1 [Compound 1] )
Response line: 86 to 88 °C

Prompt line: melting point lookup needed for CCN1C(=O)[C@@H]2Cc3c([nH]c4ccccc34)[C@@H](c3ccc(OC)cc3OC)N2C1=O [Compound 8] , thanks.
Response line: 192 to 195 °C

Prompt line: Requested field: melting point. Item: COc1ccc([C@H]2c3[nH]c4ccccc4c3C[C@H]3C(=O)N(c4ccc(Cl)cc4)C(=O)N23)c(OC)c1 [Compound 15]
Response line: 135 to 138 °C

Prompt line: Looking for the measured melting point of COc1ccc([C@@H]2c3[nH]c4ccccc4c3C[C@H]3C(=O)N(C(C)(C)C)C(=O)N23)c(OC)c1 [Compound 12] , can you help?
Response line: 193 to 195 °C

Prompt line: Please report the recorded melting point for COc1ccc([C@@H]2c3[nH]c4ccccc4c3C[C@@H]3C(=O)N(c4ccc(Cl)cc4)C(=O)N23)c(OC)c1 [Compound 13] .
Response line: 134 to 136 °C

Prompt line: Which measured melting point value corresponds to C=CCN1C(=O)[C@@H]2Cc3c([nH]c4ccccc34)[C@@H](c3ccc(OC)cc3OC)N2C1=S [Compound 19] ?
Response line: 224 to 227 °C

Continuing:
Prompt line: State the recorded melting point for this entry: COC(=O)[C@@H]1Cc2c([nH]c3ccccc23)[C@H](c2ccc(OC)cc2OC)N1 [Compound 3]
Response line: 88 to 90 °C

====

- TEST SYSTEM: recombinant human PDE5 (Homo sapiens)
- Construct: purchased BPS Biosciences, San Diego, CA
- METHOD: IMAP fluorescence polarization phosphodiesterase assay (TAMRA-cGMP substrate)
- Assay type: biochemical
- PARTICULARS: screening dose 10 μM, triplicate; read-out: %PDE5 inhibition at 10 μM
PARAMETER: inhibition at 10 µM (%)
Enter your answer as a number in %; do not include the unit.

Consider the worked cases shown below.
Prompt line: Query (molecule): COc1ccc([C@@H]2c3[nH]c4ccccc4c3C[C@H]3C(=O)N(C)C(=S)N23)c(OC)c1 ; field requested: inhibition at 10 µM
Response line: 29

Prompt line: Recorded inhibition at 10 µM of CCN1C(=O)[C@@H]2Cc3c([nH]c4ccccc34)[C@H](c3ccc(OC)cc3OC)N2C1=O , please.
Response line: 54

Prompt line: Any idea what inhibition at 10 µM was measured for COC(=O)[C@@H]1Cc2c([nH]c3ccccc23)[C@H](c2ccc(OC)cc2OC)N1 ?
Response line: 55

Prompt line: Quick one: inhibition at 10 µM of COc1ccc([C@H]2c3[nH]c4ccccc4c3C[C@@H]3C(=O)N(C(C)(C)C)C(=O)N23)c(OC)c1 ?
Response line: 68

Prompt line: # get_value(readout='inhibition at 10 µM', item= COc1ccc([C@H]2c3[nH]c4ccccc4c3C[C@H]3C(=O)N(c4ccc(Cl)cc4)C(=O)N23)c(OC)c1 )
Response line: 35

Others:
Prompt line: Quick one: inhibition at 10 µM for COc1ccc([C@H]2c3[nH]c4ccccc4c3C[C@H]3C(=O)N(C(C)(C)C)C(=O)N23)c(OC)c1 ?
Response line: 46

Prompt line: # query: inhibition at 10 µM of entry CCN1C(=O)[C@@H]2Cc3c([nH]c4ccccc34)[C@@H](c3ccc(OC)cc3OC)N2C1=O
Response line: 97

====

We begin with a simple list: items and their reported melting point.

Prompt line: Consider the compound COc1ccc([C@@H]2c3[nH]c4ccccc4c3C[C@H]3C(=O)N(C)C(=S)N23)c(OC)c1 [Compound 17] and give its measured melting point.
Response line: 188 to 191 °C

Prompt line: Query (compound): COc1ccc([C@@H]2c3[nH]c4ccccc4c3C[C@@H]3C(=O)N(C(C)(C)C)C(=O)N23)c(OC)c1 [Compound 9] ; field requested: melting point
Response line: 108 to 110 °C

Prompt line: Any idea what melting point was measured for COc1ccc([C@H]2c3[nH]c4ccccc4c3C[C@@H]3C(=O)N(C)C(=S)N23)c(OC)c1 [Compound 18] ?
Response line: 188 to 190 °C

Next:
Prompt line: So what does the record say about melting point for COc1ccc([C@H]2c3[nH]c4ccccc4c3C[C@H]3C(=O)N(C(C)(C)C)C(=O)N23)c(OC)c1 [Compound 11] ?
Response line: 103 to 106 °C
